- Test system: HCT-15
# label = yes if GI50 < 20 µM else no

Take a look at these entries with their results.
>  <Molecule>
COc1ccc(/C(=N/NC(N)=O)C2(O)C(=O)Nc3ccc([N+](=O)[O-])cc32)cc1 (stereo not drawn)

>  <Assigned Class>
no

$$$$
>  <Molecule>
CC1/C=C/C=C/CC/C=C/C=C/C=C/C=C/C(OC2OC(C)C(O)C(N)C2O)CC2OC(CC(O)C(O)CCC(O)CC(O)CC(O)CC(=O)OC(C)C(C)C1O)CC(O)C2C(=O)O (stereo not drawn)

>  <Assigned Class>
no

$$$$

GI50 strictly < 20 µM for this molecule? CN(C)c1ccc(/C=C2\C[C@H]3[C@@H]4CC=C5C[C@@H](N6CCCC6)CC[C@]5(C)[C@H]4CC[C@]3(C)[C@H]2O)cc1
yes

GI50 strictly < 20 µM for this molecule? CCCCCCCCCCCCCCCCCCOP1(=O)OCCO1
no

GI50 strictly < 20 µM for this molecule? CC1C[C@@H]2C(=O)NC(=O)[C@@H]2c2c1c1ccccc1n2C (stereo partly drawn)
no

GI50 strictly < 20 µM for this molecule? Cc1csc(NCc2ccc(Cl)cc2)n1
no

GI50 strictly < 20 µM for this molecule? CCCc1c(O)c(=O)c2c(OC)cc(OC)c3c4c(OC)cc(OC)c5c(=O)c(O)c(CCC)c(c1c23)c54
yes

GI50 strictly < 20 µM for this molecule? O=S(=O)(c1ccccc1)[C@H]1[C@@H]2O[C@@H]2C[C@@H]1O
no

----------
- System: UO-31
- Assay Name: NCI tumour cell line growth inhibition, 48 h
The source made the active and inactive calls. Rule as the data show it: active = GI50 up to about 1.1 µM and inactive = higher.
Please respond with reported GI50 for every item in the list.

>  <Molecule>
NC(=O)NNC/C(Cl)=C(\Cl)C(=O)O

>  <GI50>
> 100 µM (inactive)

$$$$
>  <Molecule>
Nc1cc(N2CCOCC2)nc(=O)n1-c1ccc(Cl)cc1

>  <GI50>
> 100 µM (inactive)

$$$$
>  <Molecule>
O=C(/C=C/c1ccc(OCc2cccc(Cl)c2)cc1)NO

>  <GI50>
4.78 µM (inactive)

$$$$
>  <Molecule>
CC(C)N(CC(=O)O)CC(=O)O

>  <GI50>
> 100 µM (inactive)

$$$$
>  <Molecule>
COc1ccc(/C(=N/NC(N)=O)C2(O)C(=O)Nc3ccc([N+](=O)[O-])cc32)cc1 (centres undefined)

>  <GI50>
20.5 µM (inactive)

$$$$

Each molecule below has a recorded value; state its GI50.
1. Nc1nc2c(=O)c3ccccc3sc2s1
2. CC(C)=CCC[C@](C)(O[C@@H]1O[C@H](CO)[C@@H](O)[C@H](O)[C@H]1O)[C@H]1CC[C@]2(C)[C@@H]1[C@H](O)C[C@@H]1[C@@]3(C)CC[C@H](O)C(C)(C)[C@@H]3[C@@H](O[C@@H]3O[C@H](CO)[C@@H](O)[C@H](O)[C@H]3O)C[C@]12C [GINSENOSIDE RG1]
3. O=C(/C=C/C=C/c1ccccc1)CCc1ccccc1
4. CC(=O)O[C@H]1CC[C@@]2(C)C(=CC[C@@H]3[C@@H]2CC[C@](C)(c2nnc(C)o2)[C@H]3CC#N)C1

["35.6 µM (inactive)", "> 100 µM (inactive)", "90.6 µM (inactive)", "> 100 µM (inactive)"]

Hey, just so you know, these numbers are from ChEMBL document CHEMBL1201862.
